- procedure_summary: Multiple-dose trial, plasma pharmacokinetics
- Assay type: in vivo, human
- stated_conditions: both sexes, human, plasma, po, 200 mg, 200 mg qd oral after breakfast, Day 15

{"molecule": "CC(C)=CCC[C@](C)(OC1O[C@H](CO)[C@@H](O)[C@H](O)[C@H]1O)[C@H]1CC[C@]2(C)[C@@H]1[C@H](O)C[C@@H]1[C@@]3(C)CC[C@H](O)C(C)(C)[C@@H]3CC[C@]12C (stereo partly shown)", "units": "h", "MRT inf": 16.1}

====

- procedure_summary: Single-dose trial, plasma pharmacokinetics
- Type: in vivo, human
- stated_conditions: both sexes, human, plasma; single-dose trial, 800 mg oral, fasting
- Procedure: Single-dose pharmacokinetics: The single-dose trial was performed first. […] Drinking before and after medication was prohibited for 2 h, but the amount and time of drinking were not strictly controlled at other times. […] All samples were preserved at −70°C and analyzed with a LC-MS/MS (API 4000 LC-MS/MS, ABI Company, Foster City, CA, USA) at the Institute of Clinical Pharmacology, Central South University (Changsha, China). […]

{"compound": "CC(C)=CCC[C@](C)(OC1O[C@H](CO)[C@@H](O)[C@H](O)[C@H]1O)[C@H]1CC[C@]2(C)[C@@H]1[C@H](O)C[C@@H]1[C@@]3(C)CC[C@H](O)C(C)(C)[C@@H]3CC[C@]12C (stereo partly shown)", "AUC(0-t), ng·h/mL": 8990}

====

- procedure_summary: Single-dose trial, plasma pharmacokinetics
- Format: in vivo, human
- stated_conditions: both sexes, human, plasma; single-dose trial, 25 mg oral, fasting
recorded_metric: MRT inf (h)

{"compound": "CC(C)=CCC[C@](C)(OC1O[C@H](CO)[C@@H](O)[C@H](O)[C@H]1O)[C@H]1CC[C@]2(C)[C@@H]1[C@H](O)C[C@@H]1[C@@]3(C)CC[C@H](O)C(C)(C)[C@@H]3CC[C@]12C (stereo partly shown) [CK]", "assay_result": 10.9}

====

- procedure_summary: Multiple-dose trial, plasma pharmacokinetics
- Type: in vivo, human
- stated_conditions: male, human, plasma, oral, Day 15, Male, read-out: Tmax, median (range)

{"compound": "CC(C)=CCC[C@](C)(OC1O[C@H](CO)[C@@H](O)[C@H](O)[C@H]1O)[C@H]1CC[C@]2(C)[C@@H]1[C@H](O)C[C@@H]1[C@@]3(C)CC[C@H](O)C(C)(C)[C@@H]3CC[C@]12C (stereo partly shown)", "units": "h", "Tmax": 3.5}

====

- procedure_summary: Multiple-dose trial, plasma pharmacokinetics
- Format: in vivo, human
- stated_conditions: both sexes, human, plasma, po, 200 mg, 200 mg qd oral after breakfast, Day 15
recorded_metric: AUC(0-inf) (ng·h/mL)

{"compound": "CC(C)=CCC[C@](C)(OC1O[C@H](CO)[C@@H](O)[C@H](O)[C@H]1O)[C@H]1CC[C@]2(C)[C@@H]1[C@H](O)C[C@@H]1[C@@]3(C)CC[C@H](O)C(C)(C)[C@@H]3CC[C@]12C (stereo partly shown)", "recorded_metric": "AUC(0-inf)", "assay_result": 34000}

====

- procedure_summary: Single-dose trial, plasma pharmacokinetics
- Type: in vivo, human
- stated_conditions: both sexes, human, plasma; single-dose trial, 400 mg oral, fasting

{"compound": "CC(C)=CCC[C@](C)(OC1O[C@H](CO)[C@@H](O)[C@H](O)[C@H]1O)[C@H]1CC[C@]2(C)[C@@H]1[C@H](O)C[C@@H]1[C@@]3(C)CC[C@H](O)C(C)(C)[C@@H]3CC[C@]12C (stereo partly shown)", "AUC(0-t) / ng·h/mL": 8100}
